Entries annotated with measured Kd
molecular target: FGFR1 (Homo sapiens); construct: made in house; host or cells: E. coli derived from BL21, infected with T7 phage; experiment: Kinase binding assay (kinase-tagged T7 phage, qPCR), Kd; conditions: read-out: FGFR1 (Kd nM)
MEASURE: Kd

> print(dat)
                                  structure             tested.on         result
1  C[C@@H](Oc1ccc2[nH]nc(-c3cnc(N)c(OC(F)(F)F)c3)c2c1)c1c(Cl)cncc1Cl  FGFR1 (Homo sapiens)      > 1000 nM
2  COc1cc(C#N)cc(-c2n[nH]c3ccc(O[C@@H](C)c4c(C)cnnc4C)cc23)c1  FGFR1 (Homo sapiens)      > 1000 nM
3  C[C@@H](Oc1ccc2[nH]nc(-c3ccnc(N)c3)c2c1)c1c(Cl)cncc1Cl  FGFR1 (Homo sapiens)  0.1 to 100 nM
4  COc1cc2[nH]nc(-c3cnc4c(c3)NCCO4)c2cc1O[C@H](C)c1c(Cl)cncc1Cl  FGFR1 (Homo sapiens)  0.1 to 100 nM
5  Cc1ncc(Cl)c([C@@H](C)Oc2ccc3[nH]nc(-c4ccc5c(c4)COC4(CCN(CC(F)F)CC4)O5)c3c2)c1Cl  FGFR1 (Homo sapiens)  100 to 250 nM
6  C[C@@H](Oc1ccc2[nH]nc(-c3cnc(N[C@@H]4CCOC4)c(C#N)c3)c2c1)c1c(Cl)cncc1Cl  FGFR1 (Homo sapiens)  0.1 to 100 nM
7  COc1c(C#N)cc(-c2n[nH]c3ccc(O[C@H](C)c4c(C)cnnc4C)cc23)cc1C#N  FGFR1 (Homo sapiens)      > 1000 nM

----------
Entries annotated with measured Kd
molecular target: FGFR1 (Homo sapiens, UniProt P11362); construct: made in house; host or cells: E. coli derived from BL21, infected with T7 phage; test: Kinase binding assay (kinase-tagged T7 phage, qPCR), Kd; conditions: read-out: FGFR1 (Kd nM)
Sequence (P11362 22-822): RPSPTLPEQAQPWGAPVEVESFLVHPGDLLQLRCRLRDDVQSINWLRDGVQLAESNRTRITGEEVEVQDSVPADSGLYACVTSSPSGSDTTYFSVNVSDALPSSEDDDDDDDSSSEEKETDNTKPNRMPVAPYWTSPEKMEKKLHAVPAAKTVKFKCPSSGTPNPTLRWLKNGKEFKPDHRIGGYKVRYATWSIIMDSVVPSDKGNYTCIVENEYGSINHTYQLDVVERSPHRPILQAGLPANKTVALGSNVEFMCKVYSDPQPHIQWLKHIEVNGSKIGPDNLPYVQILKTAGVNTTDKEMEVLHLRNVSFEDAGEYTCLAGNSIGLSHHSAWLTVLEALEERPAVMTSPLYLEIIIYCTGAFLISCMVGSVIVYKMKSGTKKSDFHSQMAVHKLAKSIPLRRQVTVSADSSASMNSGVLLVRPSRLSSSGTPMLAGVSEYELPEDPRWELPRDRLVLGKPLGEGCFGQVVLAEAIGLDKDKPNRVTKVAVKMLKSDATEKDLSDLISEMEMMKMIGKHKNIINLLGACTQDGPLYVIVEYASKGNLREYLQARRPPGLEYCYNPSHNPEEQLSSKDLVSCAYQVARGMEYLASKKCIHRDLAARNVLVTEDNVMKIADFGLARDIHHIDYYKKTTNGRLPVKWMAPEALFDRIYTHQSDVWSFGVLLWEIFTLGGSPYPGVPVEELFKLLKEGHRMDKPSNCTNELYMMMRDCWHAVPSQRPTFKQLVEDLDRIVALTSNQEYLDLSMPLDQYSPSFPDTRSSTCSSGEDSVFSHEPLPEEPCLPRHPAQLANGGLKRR
MEASURE: Kd

> print(dat)
                                   molecule  measure          result
1  C[C@@H](Oc1ccc2[nH]nc(-c3cnc4c(c3)N(C(=O)OCCCN(C)C)CCO4)c2c1)c1c(Cl)cncc1Cl [Example 43]       Kd  250 to 1000 nM
2  COc1cc(-c2n[nH]c3ccc(O[C@H](C)c4c(C)cnnc4C)cc23)cc(C#N)c1F [Example 93]       Kd       > 1000 nM
3  COc1cc(-c2n[nH]c3ccc(O[C@H](C)c4c(Cl)cncc4Cl)cc23)cc(C#N)c1OC [Example 81]       Kd       > 1000 nM
4  C[C@@H](Oc1ccc2[nH]nc(-c3ccc(OC4CC5(COC5)C4)nc3)c2c1)c1c(Cl)cncc1Cl [Example 161]       Kd   0.1 to 100 nM
5  Cc1ncc(Cl)c([C@@H](C)Oc2ccc3[nH]nc(-c4ccc5c(c4)COC4(CCN(S(C)(=O)=O)CC4)O5)c3c2)c1Cl [Example 163]       Kd   100 to 250 nM
6  COc1cc(-c2n[nH]c3ccc(O[C@H](C)c4c(C)cnnc4C)cc23)cc(C#N)n1 [Example 100]       Kd  250 to 1000 nM
7  COc1ncc(-c2n[nH]c3ccc(O[C@H](C)c4c(Cl)cncc4Cl)cc23)cc1NCc1ccccn1 [Example 4]       Kd       > 1000 nM
